Every entry's value here was drawn from patent US9958461B2.

# target.or.test.system: T1, EGFR-Wt (Homo sapiens, UniProt P00533)
# T1 construct: with the advantage of testing full-length integral membrane proteins; (GGGGS)2 linker-Cub (human ubiquitin aa 35-76)-GAL4(1-147)-mNFkB(364-550) (C); expressed in transfected cells
# protocol.notes: MaMTH EGFR-interactor screen, lentiviral preys against EGFR-wildtype bait (interaction score)
# Assay type: cell-based
# assay.setup: MaMTH interaction score of prey with EGFR-Wt bait, mean
reported.property: EGFR-Wt mean
# respond with the number and nothing more

Quick one: EGFR-Wt mean of CRKL (protein, UniProt P46109 1-303, looked up) Crk-like protein: MSSARFDSSDRSAWYMGPVSRQEAQTRLQGQRHGMFLVRDSSTCPGDYVLSVSENSRVSHYIINSLPNRRFKIGDQEFDHLPALLEFYKIHYLDTTTLIEPAPRYPSPPMGSVSAPNLPTAEDNLEYVRTLYDFPGNDAEDLPFKKGEILVIIEKPEEQWWSARNKDGRVGMIPVPYVEKLVRSSPHGKHGNRNSNSYGIPEPAHAYAQPQTTTPLPAVSGSPGAAITPLPSTQNGPVFAKAIQKRVPCAYDKTALALEVGDIVKVTRMNINGQWEGEVNGRKGLFPFTHVKIFDPQNPDENE ? 10.25
